meta.source: ChEMBL document CHEMBL4130359

Experiment: Drug uptake in fat tissue of Zucker rat sub-chronic fa/fa prediabetic model at 12.5 mg/kg, po qd for 11 days
Type: ADME, organism-based, Adipose tissue
Conditions: read-out: Drug uptake
measured.parameter: concentration at 264 h (ng/g)
Give bare numbers, in ng/g.

Request: Can you share its concentration at 264 h? I mean this compound: CN1CC[C@@H](N2C(=O)S/C(=C\c3ccc4c(cnn4Cc4ccc(Cl)cc4C(F)(F)F)c3)C2=O)[C@H](F)C1
Result: 58100

---

Test: AUC (0 to 24 hrs) in Zucker rat sub-chronic fa/fa prediabetic model at 3 mg/kg, po qd for 26 days measured on day 26 post last dose
Assay type: ADME, organism-based
Set-up: time < 24 hr, dose 3 mg/kg, route oral
Conditions: in vivo
measured.parameter: AUC at 24 h

Request: Can you share its AUC at 24 h? I mean this compound: CN1CC[C@@H](N2C(=O)S/C(=C\c3ccc4c(cnn4Cc4ccc(Cl)cc4C(F)(F)F)c3)C2=O)[C@H](F)C1
Result: 10800 ng·h/mL

---

Test: Volume of distribution at steady state in CD-1 mouse at 5 mg/kg, iv by LC-MS analysis
Format: ADME, organism-based
Details: in vivo, read-out: Vdss
measured.parameter: Vd

Request: Can you share its Vd? I mean this compound: CN1CC[C@@H](N2C(=O)S/C(=C\c3ccc4c(cnn4Cc4ccc(Cl)cc4C(F)(F)F)c3)C2=O)[C@H](F)C1
Result: 6.89 L/kg

---

Test: Cmax in ob/ob mouse at 18 mg/kg administered via oral gavage by LC-MS analysis
Type: ADME, organism-based
Set-up: dose 18 mg/kg, route oral
Details: in vivo
measured.parameter: Cmax (ng/mL)
Answers are plain numbers, in ng/mL.

Request: Can you share its Cmax? I mean this compound: CN1CC[C@@H](N2C(=O)S/C(=C\c3ccc4c(cnn4Cc4ccc(Cl)cc4C(F)(F)F)c3)C2=O)[C@H](F)C1
Result: 829

---

Molecular target: Peroxisome proliferator-activated receptor gamma (Homo sapiens, UniProt P37231)
Sequence (P37231 whole entry): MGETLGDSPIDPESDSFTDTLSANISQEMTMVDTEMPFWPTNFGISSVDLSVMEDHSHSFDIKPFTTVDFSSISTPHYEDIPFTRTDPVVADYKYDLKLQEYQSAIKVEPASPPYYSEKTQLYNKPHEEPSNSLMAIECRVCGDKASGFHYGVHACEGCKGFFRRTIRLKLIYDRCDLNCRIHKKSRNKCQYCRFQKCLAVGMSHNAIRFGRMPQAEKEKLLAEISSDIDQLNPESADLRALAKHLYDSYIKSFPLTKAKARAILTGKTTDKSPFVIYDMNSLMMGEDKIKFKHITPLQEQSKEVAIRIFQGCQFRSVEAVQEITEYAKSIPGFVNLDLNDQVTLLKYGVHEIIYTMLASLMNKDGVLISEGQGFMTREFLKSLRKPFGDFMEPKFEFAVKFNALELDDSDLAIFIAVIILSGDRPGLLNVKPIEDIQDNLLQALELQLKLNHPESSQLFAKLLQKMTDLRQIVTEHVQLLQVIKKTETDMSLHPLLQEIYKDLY
Assay: Inhibition of fluormone PPARgamma Green binding to recombinant N-terminal GST-tagged human PPARgamma LBD by fluorescence polarization assay
pIC50: −log10 of the molar value.
measured.parameter: pIC50

Request: Can you share its pIC50? I mean this compound: CN1CC[C@@H](N2C(=O)S/C(=C\c3ccc4c(cnn4Cc4ccc(Cl)cc4C(F)(F)F)c3)C2=O)[C@H](F)C1
Result: < 5.00
